Listed next: entries and their corresponding Relative bond affinity (RBA), Estrogen receptor incubation 5H at 25° C..
experimental target: Estrogen receptor of a mouse uterus (Mus musculus)
Construct: The homogenate is then ultracentrifuged (209,000 g×30 mn.) at 0° C; from tissue; host or cells: uterus of 18 to 21-day old immature female mice, cytosol (ultracentrifugation supernatant of the homogenate)
Sequence (P19785 whole entry): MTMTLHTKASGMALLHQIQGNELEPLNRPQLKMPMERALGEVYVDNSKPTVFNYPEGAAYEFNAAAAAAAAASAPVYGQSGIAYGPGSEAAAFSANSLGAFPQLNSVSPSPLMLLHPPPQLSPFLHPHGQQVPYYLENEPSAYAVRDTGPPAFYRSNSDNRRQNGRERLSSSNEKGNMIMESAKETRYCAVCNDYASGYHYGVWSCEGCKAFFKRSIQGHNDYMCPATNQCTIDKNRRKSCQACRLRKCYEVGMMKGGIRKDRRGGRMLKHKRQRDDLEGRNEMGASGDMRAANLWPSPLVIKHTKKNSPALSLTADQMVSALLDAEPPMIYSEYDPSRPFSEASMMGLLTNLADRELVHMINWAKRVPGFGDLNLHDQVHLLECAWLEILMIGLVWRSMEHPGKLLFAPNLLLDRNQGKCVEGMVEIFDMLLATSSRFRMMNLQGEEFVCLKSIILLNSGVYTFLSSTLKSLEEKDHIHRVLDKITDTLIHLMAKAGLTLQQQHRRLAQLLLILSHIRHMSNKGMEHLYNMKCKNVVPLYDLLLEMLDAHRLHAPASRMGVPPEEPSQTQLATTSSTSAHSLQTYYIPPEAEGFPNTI
experiment summary: Activity on the estrogen receptor of a mouse uterus (relative bond affinity, displacement of tritiated estradiol)
Assay type: binding
conditions: mouse uterus cytosol, RBA = 100 (CH)/(CX) relative to unlabelled estradiol
Give your answer as a number; write no unit.

Known Relative bond affinity (RBA), Estrogen receptor incubation 5H at 25° C. results, listed for orientation:
[[record]]
compound = "C[C@]12C[C@H](c3ccc(OCCCCC[S+]([O-])Cc4cccnc4)cc3)[C@@H]3c4ccc(O)cc4CC[C@H]3[C@@H]1CC[C@@H]2O (some centres unmarked) [Example 7]"
numeric_readout = 26.3

[[record]]
compound = "C[C@]12C[C@H](c3ccc(OCCCCCS(=O)(=O)CCCC(F)(F)C(F)(F)F)cc3)[C@@H]3c4ccc(O)cc4CC[C@H]3[C@@H]1CC[C@@H]2O [Example 32]"
numeric_readout = 56


Recorded Relative bond affinity (RBA), Estrogen receptor incubation 5H at 25° C. (compound C[C@]12C[C@H](c3ccc(OCCCCC[S+]([O-])Cc4ccccn4)cc3)[C@@H]3c4ccc(O)cc4CC[C@H]3[C@@H]1CC[C@@H]2O (some centres unmarked) [Example 5] ): 21.2

Relative bond affinity (RBA), Estrogen receptor incubation 5H at 25° C. measured on CCCCCS(=O)(=O)C(C)CCCOc1ccc([C@H]2C[C@]3(C)[C@@H](O)CC[C@H]3[C@@H]3CCc4cc(O)ccc4[C@H]32)cc1 (some centres unmarked) [Example 60] = 18.2

Value of Relative bond affinity (RBA), Estrogen receptor incubation 5H at 25° C. reported for the compound C[C@]1(O)CC[C@H]2[C@@H]3CCc4cc(O)ccc4[C@H]3[C@@H](c3ccc(OCCCCCS(=O)(=O)CCCC(F)(F)C(F)(F)F)cc3)C[C@@]21C [Example 78] is 21.8
